The origin of these recorded values is paper PMC12155096.

target: human CYP2C19 (Homo sapiens, UniProt P33261); assay: biochemical; conditions: CYP2C19 IC50 (half-maximal inhibitory concentration)
Sequence (P33261 whole entry): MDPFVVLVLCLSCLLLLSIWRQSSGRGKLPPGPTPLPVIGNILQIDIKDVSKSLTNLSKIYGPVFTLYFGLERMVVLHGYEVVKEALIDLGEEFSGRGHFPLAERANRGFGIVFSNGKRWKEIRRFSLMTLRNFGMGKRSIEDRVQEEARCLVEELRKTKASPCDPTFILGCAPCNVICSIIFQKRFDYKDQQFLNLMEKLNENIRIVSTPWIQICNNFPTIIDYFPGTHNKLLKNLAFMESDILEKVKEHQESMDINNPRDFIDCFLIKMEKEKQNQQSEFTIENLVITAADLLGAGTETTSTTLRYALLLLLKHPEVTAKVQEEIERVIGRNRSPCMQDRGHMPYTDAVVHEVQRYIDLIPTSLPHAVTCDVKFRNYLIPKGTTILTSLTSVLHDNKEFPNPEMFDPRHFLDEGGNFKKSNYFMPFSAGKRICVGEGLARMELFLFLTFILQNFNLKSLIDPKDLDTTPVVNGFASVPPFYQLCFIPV
pIC50: −log10 of the molar value. Where a name gives a salt, the structure may show the parent alone.
Tag: fulfilled if measured pIC50 is not below 5, not fulfilled if it is.

Reported pIC50 reaches at least 5 for CN1C[C@H](C(=O)N[C@]2(C)O[C@@]3(O)[C@@H]4CCCN4C(=O)[C@H](Cc4ccccc4)N3C2=O)C=C2c3cccc4[nH]cc(c34)C[C@H]21 [Ergotamine D-tartrate] ?
not fulfilled

# repeat for OC(CCN1CCCCC1)(c1ccccc1)C1CCCCC1 (centres unmarked) [Trihexyphenidyl hydrochloride]
not fulfilled

# repeat for CCCCC(O)(Cn1cncn1)c1ccc(Cl)cc1Cl (centres unmarked)
fulfilled

# repeat for O=[N+]([O-])c1cc(C(F)(F)F)c(Cl)c([N+](=O)[O-])c1Nc1ncc(C(F)(F)F)cc1Cl
not fulfilled

# repeat for CCCc1c(OCCCCc2nnn[nH]2)ccc(C(C)=O)c1O
fulfilled

# repeat for O=[N+]([O-])c1ccc2ccc3cccc4ccc1c2c34
not fulfilled

----------
What follows is a record of CYP2D6 Efficacy (in parenthesis) for human CYP2D6 (Homo sapiens, UniProt P10635).

Find CYP2D6 Efficacy (in parenthesis) (human CYP2D6 (Homo sapiens, UniProt P10635)) for the entry CC(=O)O.CC(C)c1ccc2c(c1)CC[C@H]1[C@](C)(CN)CCC[C@]21C [Dehydroabietylamine acetate]
1.51 ± 0.43 (-90 ± 10) %

# repeat for C=CCc1cc(S(=O)(=O)c2ccc(O)c(CC=C)c2)ccc1O
6.26 ± 1.74 (-110 ± 9) %

# repeat for C=CC(=O)OCC(CO)(COCC(COC(=O)C=C)(COC(=O)C=C)COC(=O)C=C)COC(=O)C=C [Dipentaerythritol pentaacrylate]
26.69 ± 11.98 (-72 ± 6) %

# repeat for CC(C)CC(N(C)C)C1(c2ccc(Cl)cc2)CCC1.Cl (stereo not drawn) [Sibutramine hydrochloride]
4.24 ± 0.72 (-88 ± 6) %

# repeat for CC(=O)[O-].CC(=O)[O-].[Hg+2] [Mercury(II) acetate]
1.08 ± 0.07 (-72 ± 4) %

# repeat for Cc1ccc([N+](=O)[O-])[c]2c1[O][Hg]2
0.78 ± 0.09 (-101 ± 2) %

# repeat for COP(=S)(NC(C)C)Oc1ccc(C)cc1[N+](=O)[O-] (stereo not drawn)
41.71 ± 5.32 (-58 ± 14) %

# repeat for CCCCCCCCCCCCCCCCn1cc[n+](C)c1.[Cl-] [1-Hexadecyl-3-methylimidazolium chloride]
0.38 ± 0.13 (-102 ± 3) %

# repeat for Cl.Clc1ccc(Cn2c(CN3CCCC3)nc3ccccc32)cc1 [Clemizole hydrochloride]
1.56 ± 0.18 (-101 ± 1) %

# repeat for CC(=O)c1ccc2ccc3ccccc3c2c1
88.85 ± 0 (-46 ± 10) %

# repeat for CC(C)(C)c1cc(CCC(=O)NN)cc(C(C)(C)C)c1O
34.28 ± 2.23 (-95 ± 1) %

# repeat for O=C(NCc1cccnc1)Nc1ccc([N+](=O)[O-])cc1
44.8 ± 15.98 (-64 ± 3) %

----------
target: human CYP2C19 (Homo sapiens, UniProt P33261); assay: biochemical; conditions: CYP2C19 IC50
Structures can show the parent of a compound that is named as a salt.
testReadout: pIC50
Formally, pIC50 is defined as -log10 of the concentration c, with c in mol/L.

Find pIC50 (human CYP2C19 (Homo sapiens, UniProt P33261)) for the entry CC[n+]1c(-c2ccccc2)c2cc(N)ccc2c2ccc(N)cc21 [Ethidium bromide]
4.88

# repeat for Cc1cc(-c2ccc(N)c(C)c2)ccc1N [3,3'-Dimethylbenzidine]
5.20

# repeat for ClC1=C(Cl)C2(Cl)C3C4C=CC(C4)C3C1(Cl)C2(Cl)Cl (stereo not drawn) [Aldrin]
4.56

# repeat for Cc1ccc2ccc3cccc4ccc1c2c34 [1-Methylpyrene]
4.50

# repeat for Cc1ccc2cc3c(ccc4ccccc43)c3c2c1CC3 [3-Methylcholanthrene]
4.65

# repeat for CCN(CC)CCCN(c1ccccc1)C1Cc2ccccc2C1 [Aprindine hydrochloride]
4.38

# repeat for Cl[C@H]1[C@H](Cl)[C@@H](Cl)[C@H](Cl)[C@@H](Cl)[C@@H]1Cl [beta-Hexachlorocyclohexane]
5.71

# repeat for CN1CCC(N(Cc2cccs2)c2ccccc2)CC1 [Thenalidine]
4.43

# repeat for CS(=O)(=O)c1ccc(-c2cn3ccccc3n2)cc1 [Zolimidine]
4.59
